Values from PubChem BioAssay

- Tested on: Noggin (protein binding on small-molecule microarray)
- assay method text: Noggin binders on small-molecule microarray, primary screen, biochemical, 635/667 nm fluorescence (AID 1095);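 note: score merges 667 nm feature fluorescence with signal to noise over triplicate slides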
- particulars: 635 nm fluorescence, higher = more signal
Assign class by composite z-score: not lower than 0.02 means Satisfied; lower than 0.02 means Not satisfied.

molecule: CCCCCN1CC=CC23O[C@@H]4/C=C\CCC(C)OC(=O)C4[C@H]2C(=O)N(CCCO)[C@@H]3C1=O (stereo not given in full)
label value: Not satisfied
//
molecule: [N-]=[N+]=NCc1ccccc1C[C@@]1(C(=O)O)N=C(c2ccc(OCCCO)cc2)O[C@@H]1c1ccccc1
label value: Not satisfied
//
molecule: COc1ccc(CCNC(=O)[C@@]2(Sc3ccc(C)cc3)CC(=O)N(Cc3ccccc3)[C@@H]2c2ccc(CO)cc2I)cc1
label value: Not satisfied
//
molecule: C=C(C1=CCN(S(=O)(=O)c2ccc(C)cc2)C1)[C@@H](OC(C)=O)[C@@H]1CCCN1S(=O)(=O)c1ccccc1[N+](=O)[O-]
label value: Not satisfied
//
molecule: CCCCCCC#C[Si](O[C@H](c1ccccc1)c1cn(Cc2ccccc2)nn1)(C(C)C)C(C)C
label value: Satisfied
//
molecule: CC(C)CNC(=O)[C@@H]1c2ccccc2C(=O)N(Cc2ccc(OC(F)(F)F)cc2)[C@H]1c1ccc(CO)cc1
label value: Satisfied
//
molecule: C=C(COC)C(=O)CC[C@@H](OC(=O)c1ccccc1-c1ccccc1C(=O)O)c1cccc(OCCO)c1
label value: Satisfied
//
molecule: Cc1ccc(S[C@]2(C(=O)NC3CC3)CC(=O)N(Cc3ccccc3C(F)(F)F)[C@@H]2c2ccc(CO)cc2I)cc1
label value: Not satisfied
//
molecule: COc1ccc([Si](C)(C)[C@@H]2[C@@H](CCn3cc([C@H](O)c4ccccc4)nn3)O[C@]3(C(=O)N(C)c4c(Br)cc(C)cc43)[C@H]2C)cc1
label value: Satisfied
//
molecule: CC(C)C[C@@H]1NC(=O)[C@H]2C[C@@H](C(=O)NCCCC[N+](C)(C)C)[C@@H](c3cccc(OCCO)c3)N2C1=O
label value: Satisfied
//
molecule: CO[C@H]1O[C@H](CO)[C@@H](OC(=O)Nc2ccccc2)[C@H](OC(=O)Nc2ccccc2-c2ccccc2)[C@H]1OC(=O)Nc1ccccc1-c1ccccc1
label value: Satisfied
//
molecule: COc1ccc([Si](C)(C)[C@H]2[C@H](CCO)O[C@@]3(C(=O)N(Cc4ccc(N5C(=O)c6cccc7cccc5c67)cc4)c4ccccc43)[C@@H]2C)cc1
label value: Not satisfied
//
molecule: CCCNC(=O)[C@@]1(Sc2ccc(C)cc2)CC(=O)N(Cc2cc(C(F)(F)F)cc(C(F)(F)F)c2)[C@@H]1c1ccc(CO)cc1I
label value: Not satisfied
//
molecule: CCOC(=O)C[C@H]1[C@H](OC(=O)c2cc3ccccc3oc2=O)[C@@H](NC(=O)c2ccccc2)c2cc(OCCCO)ccc2N1C(=O)Cc1ccc(OC)cc1
label value: Satisfied

====

- assay method text: COS7 lysate on small-molecule microarray, probe aHis, 635 nm (AID 1123);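 note: z-score combines 667nm fluorescence intensity with signal-to-noise per printed compound spot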
- particulars: COS7 cell lysate, fluorescence, higher = more signal
measured property: composite z-score

compound: C=CCC1(CC=C)C[C@H]2CO[C@H](c3ccc(OC)cc3)N2C1=O
result number: -0.348
//
compound: COC(=O)[C@@]1(CCC(=O)OC(C)(C)C)COC(c2ccc(OCCCO)cc2)=N1
result number: 0.214
//
compound: [N-]=[N+]=Nc1ccccc1[C@H]1OC(c2ccc(OCCCO)cc2)=N[C@@]1(Cc1ccccc1)C(N)=O
result number: 0.798
//
compound: C=C(COC)/C(=C/C[C@H](OC(C)=O)c1ccc(CO)o1)c1cnc2ccccc2c1
result number: 1.25
//
compound: COCCOC(=O)N1C(=O)[C@@]2(c3ccccc31)[C@H](C(=O)Nc1nc3ccccc3s1)[C@H]1C(=O)O[C@H](c3ccccc3)[C@H](c3ccccc3)N1[C@@H]2c1ccc(O)cc1
result number: 0.903
//
compound: CC(C)(C)OC(=O)CC[C@@]1(C(=O)NCc2ccccc2)N=C(c2ccc(OCCCO)cc2)O[C@@H]1c1ccccc1CN=[N+]=[N-]
result number: 2.02
//
compound: C=C(C(=O)CC[C@@H](OC(C)=O)c1ccccc1OCCO)C(C)C
result number: -0.152
//
compound: C=CCN1C(=O)[C@@]2(O[C@@H](CCn3cc(CCO)nn3)[C@H]([Si](C)(C)c3ccc(OC)cc3)[C@H]2C)c2cc(N3C(=O)c4cccc5cccc3c45)ccc21
result number: 0.249
//
compound: COC(=O)C1=CC(c2ccc(CO)cc2)=CC(c2cccs2)N(C)C=C1C(=O)OC (centres undefined)
result number: 2
//
compound: CCOC(=O)C[C@H]1[C@H](OC(=O)c2cc3ccccc3oc2=O)[C@@H](NC(=O)c2ccccc2)c2cc(OCCCO)ccc2N1C(=O)Cc1ccc(OC)cc1
result number: 0.257
//
compound: CC(C)CCC[C@@H](C)[C@H]1CC[C@@]2(C)C3=C(CC[C@]12C)[C@@]1(C)CC[C@H](OC(=O)CCl)C(C)(C)C1CC3 (some centres undefined)
result number: 0.555
//
compound: CC(C)(C)OC(=O)CC[C@@]12N=C(c3ccc(OCCCO)cc3)O[C@@H]1c1ccccc1N(Cc1ccccc1)C2=O
result number: 1.67
//
compound: C=C(CCCC)/C(=C/C[C@H](OC(=O)c1ccncc1)c1ccc(CO)o1)c1cnc2ccccc2c1
result number: 0.368
//
compound: COCCCNC(=O)[C@@]1(CCS(=O)(=O)c2ccccc2)N=C(c2ccc(OCCCO)cc2)O[C@H]1c1ccccc1CN=[N+]=[N-]
result number: 2.3
//
compound: CCCCC(=C=CC[C@H](O)c1cccc(OCCO)c1)CCO
result number: 0.24
//
compound: C=C1C=C(Br)C2(OCCCO2)[C@H]2OC12 (some centres undefined)
result number: -0.529
//
compound: COc1ccc([Si](C)(C)[C@H]2[C@H](CC(=O)N3Cc4ccccc4C[C@H]3CO)O[C@@]3(C(=O)N(Cc4cccc(N5C(=O)COc6ccccc65)c4)c4ccccc43)[C@@H]2C)cc1
result number: 1.97
//
compound: C[N+](C)(C)CCCC[C@@H]1NC(=O)[C@H]2C[C@@H](C(=O)NCCCCCN)[C@@H](c3cccc(OCCO)c3)N2C1=O
result number: 2.41
//
compound: CC(C)(C)OC(=O)CC[C@@]12N=C(c3ccc(OCCCO)cc3)O[C@@H]1c1ccccc1CN(Cc1ccccc1)C2=O
result number: 1.73
//
compound: O=C1N(CCS(=O)(=O)c2ccccc2)Cc2ccccc2[C@@H]2OC(c3ccc(OCCCO)cc3)=N[C@]12Cc1ccccc1
result number: 2.84
//
compound: C=C(/C(=C/C[C@H](OC(=O)c1ccncc1)c1cccc(OCCO)c1)c1cc(C(=O)OC)ccc1OC)C(C)C
result number: 0.239
//
compound: [N-]=[N+]=NCc1ccccc1C[C@]1(C(=O)NCc2ccccc2)N=C(c2ccc(OCCCO)cc2)O[C@H]1c1ccccc1
result number: 1.85
//
compound: CCCNC(=O)[C@@]1(Sc2ccc(C)cc2)CC(=O)N(Cc2cc(C(F)(F)F)cc(C(F)(F)F)c2)[C@@H]1c1ccc(CO)cc1I
result number: 0.918
//
compound: COc1ccc([Si](C)(C)[C@@H]2[C@@H](CC(=O)N3CCC[C@H]3CO)O[C@]3(C(=O)N(Cc4ccc(I)cc4)c4ccccc43)[C@H]2C)cc1
result number: 0.713
//
compound: O=C1c2ccccc2[C@](Cc2ccccc2I)(C(=O)O)[C@H](c2ccc(CO)cc2)N1Cc1ccccc1Cl
result number: 2.24
//
compound: C=CCC(OC(C)=O)[C@@H]1[C@@H](N(Cc2cccc3ccccc23)C(=O)Cc2ccc(OC)cc2)c2cc(OCCCO)ccc2N1C(=O)Cc1ccc(OC)cc1 (some centres undefined)
result number: 0.624
//
compound: Cc1ccc(S[C@]2(C(=O)NCCN3CCOCC3)CC(=O)N(Cc3cc(C(F)(F)F)cc(C(F)(F)F)c3)[C@@H]2c2ccc(CO)cc2)cc1
result number: 0.244
//
compound: C=CCN1C(=O)[C@]2(O[C@H](CCn3cc([C@H](O)c4ccccc4)nn3)[C@@H]([Si](C)(C)c3ccc(OC)cc3)[C@@H]2C)c2cc(N3CCOC3=O)ccc21
result number: 0.8
//
compound: C=CCNC(=O)[C@H]1[C@@H]2C(=O)O[C@@H](c3ccccc3)[C@@H](c3ccccc3)N2[C@@H](c2ccccc2OCCO)[C@]12C(=O)N(C(=O)OCCOC)c1ccc(C#CCCO)cc12
result number: 1.79

====

- assay method text: IOSE-T80 ovarian epithelial cell cytotoxicity, dose response, cytotoxicity control for PAX8 inhibitor project, plate reader, dry powder samples (AID 743045);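 note: 0% = neutral control median and -100% = positive control median; more negative values mean more cell killing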
- particulars: IOSE-T80 ovarian epithelial cells; series mostly up to 35 µM
Measured potencies and affinities stand elsewhere. Calls of active or inactive are those of the source. How the calls were made is not given here.
measured property: activity change, negative = cytotoxicity

molecular string: Cc1noc(C)c1S(=O)(=O)Nc1ccc2c(c1)CC(=O)N([C@@H](C)CO)C[C@@H](C)[C@H](CN(C)Cc1ccc(Cl)c(Cl)c1)O2
measured property: activity change, negative = cytotoxicity
result: inactive
//
molecular string: C[C@H](CO)N1C[C@H](C)[C@@H](CN(C)Cc2ccc(C(F)(F)F)cc2)OCCCC[C@H](C)Oc2ccc(NC(=O)Nc3ccc(F)cc3)cc2C1=O
measured property: activity change, negative = cytotoxicity
result: inactive
//
molecular string: COc1ccc(S(=O)(=O)Nc2ccc3c(c2)CC(=O)N([C@@H](C)CO)C[C@H](C)[C@@H](CN(C)Cc2ccc(C(F)(F)F)cc2)O3)cc1
measured property: activity change, negative = cytotoxicity
result: inactive
//
molecular string: C[C@@H]1CCCCO[C@@H](CN(C)Cc2ccc(Cl)c(Cl)c2)[C@H](C)CN([C@@H](C)CO)C(=O)c2cc(NS(=O)(=O)c3ccccc3)ccc2O1
measured property: activity change, negative = cytotoxicity
result: inactive
//
molecular string: C[C@H]1CN([C@@H](C)CO)C(=O)c2cc(NS(=O)(=O)c3ccc(Cl)cc3)ccc2O[C@H]1CN(C)Cc1ccc(Cl)c(Cl)c1
measured property: activity change, negative = cytotoxicity
result: inactive
//
molecular string: COc1ccc2c3c(n(C)c2c1)[C@@H](CO)N(C(=O)Nc1ccc(F)cc1)CC31CCN(S(=O)(=O)c2cccc(C)c2)CC1
measured property: activity change, negative = cytotoxicity
result: inactive
